- Method notes: Half life in Sprague-Dawley rat at 10 mg/kg, ip
- Assay type: ADME, organism-based
- Measurement setup: in vivo
Property label: half-life (h)
API: value field is a number in h; no unit string.

Compound: O=C1CCC(N2Cc3cc(CNC(=O)C(F)(F)c4ccc(Cl)cc4)ccc3C2=O)C(=O)N1 (stereo not drawn)
Property label: half-life
Unit: h
Reported result: 2.91

Entry Cc1ccc(C/C(=N\O)C(=O)NCc2ccc3c(c2)CN(C2CCC(=O)NC2=O)C3=O)cc1Cl (stereo not drawn) — recorded half-life = 0.73

Entry O=C1CCC(N2Cc3cc(CNC(=O)C4COc5ccccc5C4)ccc3C2=O)C(=O)N1 (stereo not drawn) — recorded half-life = 1.1
